- measurementConditions: basic group

{"querySmiles": "CCC(=O)SCCN(C)C", "pKa": 8.28}
{"querySmiles": "CCCCCCCCCCCCNc1ccccc1", "pKa": 4.12}
{"querySmiles": "Cn1ccc(=N)cc1", "pKa": 12.5}
{"querySmiles": "CN(c1ccccc1)C1CCCC1", "pKa": 6.71}
{"querySmiles": "Nc1ccccc1Cl", "pKa": 2.64}
{"querySmiles": "CN1CCCN1C", "pKa": 6.67}
{"querySmiles": "Brc1ccc2nc3c(c(N4CCOCC4)c2c1)CCC3", "pKa": 6.38}
{"querySmiles": "CN1CC[C@]23c4c5ccc(O)c4O[C@H]2[C@@H](O)C=C[C@H]3[C@H]1[C@H]5O", "pKa": 7.13}

----------
- measurementConditions: acidic group
Listed here are molecules together with their documented pKa.

{"querySmiles": "O=S1(=O)C=C(O)c2ccccc21", "pKa": 7.65}
{"querySmiles": "O=[N+]([O-])c1ccccc1B(O)O", "pKa": 8.52}
{"querySmiles": "Cc1cccc(C(=O)O)c1[N+](=O)[O-]", "pKa": 2.91}
{"querySmiles": "O=C(O)[C@H]1CC[C@H](O)CC1", "pKa": 4.68}
{"querySmiles": "CCC/C=C(/C)C(=O)O", "pKa": 4.44}
{"querySmiles": "Nc1nc2c(ncn2[C@@H]2C=C[C@H](CO)C2)c(O)[nH+]1", "pKa": 3.15}
{"querySmiles": "CCC[NH2+]CCS", "pKa": 7.92}
{"querySmiles": "O=C(O)CCc1c[nH]c2ccccc12", "pKa": 4.87}
{"querySmiles": "Nc1ncnc2[nH]cnc12", "pKa": 9.86}
{"querySmiles": "CN(C)C(=O)/C=C(\\O)c1ccncc1", "pKa": 7.32}
{"querySmiles": "CCCCCCc1c(-c2ccccc2)nn(-c2ccccc2)c1O", "pKa": 7.4}
{"querySmiles": "CC(=O)c1ccc(CC(=O)O)s1", "pKa": 3.8}
{"querySmiles": "O=C1CCCC(=O)N1", "pKa": 11.4}
{"querySmiles": "Cc1cccc([N+](=O)[O-])c1C(=O)O", "pKa": 2.13}
{"querySmiles": "Cc1c[n+]([C@@H]2C[C@@H](O)[C@H](CO)O2)c(O)nc1N", "pKa": 4.4}
{"querySmiles": "C(CSCCc1nnn[nH]1)SCCc1nnn[n-]1", "pKa": 5.64}
{"querySmiles": "OCCO", "pKa": 14}

----------
- measurementConditions: acidic group
Catalogue of molecules with associated pKa
measure: pKa

{"molecule": "O=C(O)[C@@H]1CC[C@H](C(=O)O)C1", "measuredResult": 4.24}
{"molecule": "[NH3+][C@@H](Cc1[nH+]c[nH]c1I)C(=O)O", "measuredResult": 1.65}
{"molecule": "O=S(=O)(Nc1ccccc1)c1ccccc1", "measuredResult": 8.22}
{"molecule": "CCN(CC)Cc1cc(OC)ccc1O", "measuredResult": 10.9}
{"molecule": "CNC(=S)OC(C)C", "measuredResult": 11.6}
{"molecule": "N#Cc1ccc(-c2nnn[nH]2)cc1", "measuredResult": 3.53}
{"molecule": "O=[PH]([O-])C(NCc1ccncc1)c1ccccc1O (configuration not stated)", "measuredResult": 11.9}

----------
Measured pKa of individual entries
- measurementConditions: basic group

{"molecule": "CC(C)(C)N1CC(O[Si](C)(C)C)C1", "pKa": 9.24}
{"molecule": "CN[C@H]1C[C@@H]1NC", "pKa": 8.73}
{"molecule": "NCC(O)c1ccc(Cl)cc1 (stereo not given)", "pKa": 9.04}
{"molecule": "CCN(CCO)CC(C)O (stereo not given)", "pKa": 8.9}
{"molecule": "Clc1ccc2[nH]cnc2c1", "pKa": 4.86}

----------
- measurementConditions: acidic group
measure: pKa

{"compound": "CC(=O)OCC(=N/[O-])/C(C)=N/O", "measure": "pKa", "measuredResult": 11.5}
{"compound": "CCOC(=O)/C(=N/O)c1ccccc1", "measure": "pKa", "measuredResult": 8.95}
{"compound": "Cc1cc(=O)n2ncnc2[nH]1", "measure": "pKa", "measuredResult": 6.19}
{"compound": "CC1(C)OC(=O)C[C@H]2[C@@H](C(=O)O)[NH2+]C[C@H]21", "measure": "pKa", "measuredResult": 2.27}
{"compound": "CCC([NH3+])C(=O)O (stereo not drawn)", "measure": "pKa", "measuredResult": 2.29}
{"compound": "CCOc1ccc(O)cc1", "measure": "pKa", "measuredResult": 10.2}
{"compound": "CC(=O)c1cc(C(=O)C(C)(C)C)[nH]n1", "measure": "pKa", "measuredResult": 9.7}
{"compound": "O=c1nc([O-])c2ncn([C@H]3O[C@@H](CO)[C@H](O)[C@@H]3O)c2[nH]1", "measure": "pKa", "measuredResult": 13}
{"compound": "O=C([O-])/C=C\\c1ccccc1O", "measure": "pKa", "measuredResult": 10.7}
{"compound": "N#CCC[n+]1ccc(C(N)=O)cc1.[Br-]", "measure": "pKa", "measuredResult": 13.3}
{"compound": "O=C(O)c1c(O)cccc1[N+](=O)[O-]", "measure": "pKa", "measuredResult": 2.24}
{"compound": "CCCC(=O)c1cc(C(C)=O)n[nH]1", "measure": "pKa", "measuredResult": 9.28}
{"compound": "Cc1c(-c2ccccc2)nn(-c2ccccc2)c1O", "measure": "pKa", "measuredResult": 7.8}

----------
- measurementConditions: acidic group
The reader will find reported pKa values listed item by item below.

{"molecule": "CN(C)c1nnn[nH]1", "pKa": 5.92}
{"molecule": "O=C(NCO)c1ccccc1", "pKa": 13.1}
{"molecule": "CSc1nc2ncncc2[nH]1", "pKa": 7.67}
{"molecule": "O=Cc1ccccc1B(O)O", "pKa": 7.31}
{"molecule": "C[n+]1cccc(CC(=O)c2ccccc2)c1", "pKa": 11}
{"molecule": "O=C(O)C12CC3CC(CC(F)(C3)C1)C2", "pKa": 4.22}
{"molecule": "[NH3+][C@@H](Cc1c[nH]c2ccccc12)C(=O)O", "pKa": 2.2}
{"molecule": "O=C(O)CC(=O)/C=N/O", "pKa": 3.5}
{"molecule": "C[N+](C)(C)Cc1ccccc1O", "pKa": 8.71}
{"molecule": "C[C@H]([NH3+])CCC(=O)O", "pKa": 4.13}
{"molecule": "Oc1ccc2[nH]cnc2c1", "pKa": 10}
{"molecule": "C[n+]1cccc2c(O)cccc21", "pKa": 6.12}
{"molecule": "CCC[n+]1cccc2c(O)cccc21", "pKa": 6.06}
{"molecule": "Nc1ncnc2[nH]ncc12", "pKa": 10.8}
{"molecule": "CCc1cc(CC)c(OC)c(C(=O)NC[C@H]2CCC[NH+]2CC)c1O", "pKa": 7.24}
{"molecule": "O=CC1CCCCC1=O (configuration not stated)", "pKa": 6.35}
{"molecule": "N#C[C@H]1CCCC[C@@H]1C(=O)O", "pKa": 3.86}
{"molecule": "CC(O)=C(C#N)C#N", "pKa": 1}
{"molecule": "C[n+]1cccc2c3ccccc3[nH]c21", "pKa": 7.4}
{"molecule": "Cc1cc2nc3ccc(N(C)C)cc3nc2cc1N", "pKa": 14.7}
{"molecule": "Cc1ccc(C(=O)O)cc1Cl", "pKa": 4.06}
{"molecule": "NC(=O)CNCCCNCC(N)=O", "pKa": 7.27}

----------
- measurementConditions: acidic group
Measured pKa, listed per entry for reference.

{"compound": "Cc1cccc(C(=O)O)c1O", "pKa": 3.02}
{"compound": "Nc1ccc(S(=O)(=O)Nc2nccs2)c(Cl)c1", "pKa": 6.95}
{"compound": "CN(C)S(=O)(=O)c1ccc(NS(=O)(=O)c2ccc(N)cc2)cc1", "pKa": 6.23}
{"compound": "O=[N+]([O-])c1ccc(C(=S)Nc2ccccc2)cc1", "pKa": 9.81}
{"compound": "CN(O)C(=O)c1ccccc1", "pKa": 8.07}
{"compound": "O=C1C=CC(=O)c2c(O)cccc21", "pKa": 8.7}
{"compound": "[O-][n+]1c2ccccc2[n+](O)c2ccccc21", "pKa": -1.62}
{"compound": "O=C(O)C#Cc1ccccc1", "pKa": 2.26}
{"compound": "N#CC(C#N)=NNc1ccccc1Br", "pKa": 6.35}
{"compound": "Cc1cc(Cc2cc([N+](=O)[O-])ccc2O)cc(C)c1O", "pKa": 7.12}
{"compound": "N#CCC(C(=O)O)c1ccccc1 (stereo not drawn)", "pKa": 3.44}
{"compound": "O=c1ccc(O)c(Br)cc1", "pKa": 4.9}
{"compound": "[NH-]S(=O)(=O)c1nnc(Nc2ccccc2)s1", "pKa": 11.1}
{"compound": "O=P([O-])(O)C([NH2+]Cc1cccnc1)c1ccccc1O (stereo not drawn)", "pKa": 5.15}
{"compound": "O=S(=O)(Nc1ncc(Cl)cn1)c1ccc(O)cc1", "pKa": 5.59}
{"compound": "CCOC(=O)c1ccc(O)c([N+](=O)[O-])c1", "pKa": 5.44}
{"compound": "C[NH+](C)Cc1cc(F)cc(C[NH+](C)C)c1O", "pKa": 5.77}
{"compound": "Cc1ccc2[nH]c(CO)nc2c1", "pKa": 11.5}
{"compound": "Oc1ccccc1-c1cc2ccccc2cc1O", "pKa": 7.55}
{"compound": "O=C(/C=N/O)CCl", "pKa": 7.9}
{"compound": "N#CCC(=O)O", "pKa": 2.46}
{"compound": "Cc1ccc(O)c([O-])c1", "pKa": 13.3}
{"compound": "O=C(O)c1ccc(CCl)cc1", "pKa": 4.13}
{"compound": "CC(=O)N1CS(=O)(=O)C[C@H]1C(=O)O", "pKa": 2.23}
{"compound": "[O-]c1ccc(O)cc1Cl", "pKa": 10.8}
{"compound": "COc1ccc(/C=N/O)cc1", "pKa": 11}
{"compound": "NNC(=O)c1cccnc1", "pKa": 11.5}
{"compound": "CCCC[NH2+]CCC(=O)O", "pKa": 3.57}
{"compound": "O=C1CCCC(=O)N1O", "pKa": 7.6}
{"compound": "O=C(O)c1ccc([N+](=O)[O-])s1", "pKa": 2.68}
{"compound": "C(C[NH2+]CCc1nnn[nH]1)[NH2+]CCc1nnn[nH]1", "pKa": 3.11}
{"compound": "CC(O)c1cccc(O)c1CO (stereo not drawn)", "pKa": 9.9}
{"compound": "NC(=O)c1cccnc1", "pKa": 13.5}
{"compound": "C/C(=C(/S)CCO)N(C=O)Cc1cnc(C)nc1N", "pKa": 11.4}
{"compound": "[NH3+]C(c1cccc(O)c1O)P(=O)([O-])O (stereo not drawn)", "pKa": 5.06}
{"compound": "Nc1cncnc1N", "pKa": 9.33}
{"compound": "O=C(O)c1ccc(=O)oc1", "pKa": 3.26}
{"compound": "Cc1ncnc2nc[nH]c12", "pKa": 9.21}
{"compound": "c1cc2[nH]cnc2cn1", "pKa": 10.9}
{"compound": "CCOc1cccc(C(=O)O)c1C", "pKa": 3.73}
{"compound": "OCCNC(=S)S", "pKa": 2.82}
{"compound": "c1ncc2[nH]nnc2n1", "pKa": 4.88}
{"compound": "Cc1ccccc1[Se]CC(=O)O", "pKa": 3.79}
{"compound": "Nc1ccc(S(=O)(=O)Nc2nccs2)cc1", "pKa": 7.25}
{"compound": "O=C1NC(=O)/C(=C/c2ccccc2)N1", "pKa": 8.6}
{"compound": "CC(I)[N+](=O)[O-] (stereo not drawn)", "pKa": 7.24}
{"compound": "CC(C)C1NC(=S)NC1=O (stereo not drawn)", "pKa": 8.7}
{"compound": "CCN(CC)C(=S)S", "pKa": 3.95}
{"compound": "OC(O)=C1SCc2ccccc21", "pKa": 5.32}
{"compound": "C=CC(CC(C)(C)CC(C)(C)C)c1ccc2cccnc2c1O (stereo not drawn)", "pKa": 10}
{"compound": "c1ccc(CCNc2ncnc3[nH]ncc23)cc1", "pKa": 4.38}
{"compound": "CCNC(=S)OC(C)C", "pKa": 11.5}
{"compound": "N#CCC(=O)NN", "pKa": 11.1}
{"compound": "Cc1cc(O)[nH+]c(O)[nH+]1", "pKa": 1.2}
{"compound": "Cc1ccccc1OCC(=O)O", "pKa": 3.17}
{"compound": "O=C(O)COc1ccccc1[N+](=O)[O-]", "pKa": 2.9}
{"compound": "Nc1nc[nH+]c2c1ncn2CCOCP(=O)(O)O", "pKa": 1.22}
{"compound": "COc1cnc[nH+]c1O", "pKa": 1.75}
